settings: rat, in vivo, po, 10 ug/50 ul
readout_name: level at 6 h (ng/mL)
Numbers only, in ng/mL.

QUERY: # level at 6 h lookup, item CC[C@H](C)[C@H](NC(=O)[C@H](Cc1ccc(O)cc1)NC(=O)[C@@H](NC(=O)[C@H](CCCNC(=N)N)NC(=O)[C@@H](N)CC(=O)O)C(C)C)C(=O)N[C@@H](Cc1c[nH]cn1)C(=O)N1CCC[C@H]1C(=O)O [SEQ ID NO: 1, Asp-Arg-Val-Tyr-Ile-His-Pro]
RESULT: 0.086
